In this section, each of the compounds is paired with its reported inhibition at 10 µM.
molecular target: HDAC6 enzyme (Homo sapiens); construct: prepared by transducing full length HDAC6 gene into Sf-9 insect cells; GST; purchased SignalChem; host or cells: Sf-9 insect cells; experiment: HDAC6 enzyme inhibitory assay (HDAC-Glo I/II Assay kit, luminescence); assay type: biochemical; details: 10 μM test compound; wells without enzyme = 100% inhibition; read-out: HDAC6 inhibitory rate (%) (10 μM)
Sequence (Q9UBN7 whole entry): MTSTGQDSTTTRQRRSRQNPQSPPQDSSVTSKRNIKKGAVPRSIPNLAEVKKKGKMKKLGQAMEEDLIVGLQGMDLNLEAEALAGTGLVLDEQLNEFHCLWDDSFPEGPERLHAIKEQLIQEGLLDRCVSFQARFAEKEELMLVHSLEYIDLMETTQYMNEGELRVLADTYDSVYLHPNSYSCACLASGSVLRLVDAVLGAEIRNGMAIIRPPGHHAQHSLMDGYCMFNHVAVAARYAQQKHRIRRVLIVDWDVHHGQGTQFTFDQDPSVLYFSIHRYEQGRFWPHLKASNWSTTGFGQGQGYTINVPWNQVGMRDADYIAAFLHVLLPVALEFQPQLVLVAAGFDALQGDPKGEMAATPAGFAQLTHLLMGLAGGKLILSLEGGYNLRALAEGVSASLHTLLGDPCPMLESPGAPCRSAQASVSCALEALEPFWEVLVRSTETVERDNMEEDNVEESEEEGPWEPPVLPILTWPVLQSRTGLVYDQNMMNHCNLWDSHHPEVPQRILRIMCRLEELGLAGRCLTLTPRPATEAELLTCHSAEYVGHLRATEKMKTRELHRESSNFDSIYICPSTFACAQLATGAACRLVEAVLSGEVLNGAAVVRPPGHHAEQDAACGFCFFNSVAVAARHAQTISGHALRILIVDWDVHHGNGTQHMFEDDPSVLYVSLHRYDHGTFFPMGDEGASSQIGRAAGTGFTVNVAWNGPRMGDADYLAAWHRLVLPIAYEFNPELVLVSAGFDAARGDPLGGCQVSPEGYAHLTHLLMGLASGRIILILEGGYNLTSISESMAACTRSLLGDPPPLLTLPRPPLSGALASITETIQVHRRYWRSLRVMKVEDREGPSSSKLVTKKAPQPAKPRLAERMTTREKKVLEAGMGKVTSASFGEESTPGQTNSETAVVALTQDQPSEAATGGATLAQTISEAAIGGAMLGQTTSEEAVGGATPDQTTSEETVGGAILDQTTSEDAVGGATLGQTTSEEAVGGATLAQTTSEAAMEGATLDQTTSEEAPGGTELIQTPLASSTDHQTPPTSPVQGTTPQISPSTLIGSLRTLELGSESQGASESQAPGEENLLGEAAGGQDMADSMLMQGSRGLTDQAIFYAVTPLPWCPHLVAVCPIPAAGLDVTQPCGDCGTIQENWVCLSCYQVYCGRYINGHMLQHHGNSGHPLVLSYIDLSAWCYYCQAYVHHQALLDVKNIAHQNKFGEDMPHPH

compound: O=C1NN(C2CCC(F)(F)CC2)Cc2ccc(-c3nnc(C(F)F)o3)cc21 [Example 29b]
inhibition at 10 µM / %: 99
//
compound: CN(Cc1ccc2nccn2c1)N1Cc2ccc(-c3nnc(C(F)F)o3)cc2C1=O [Example 45c]
inhibition at 10 µM / %: 99
//
compound: Cc1nc(Cn2ccnc2-c2cc(F)cc(-c3nnc(C(F)F)o3)c2)co1 [Example 57a]
inhibition at 10 µM / %: 97
//
compound: Cc1ccc(COc2cccnc2-c2cc(F)cc(-c3nnc(C(F)F)o3)c2)cc1
inhibition at 10 µM / %: 79
//
compound: O=C(OCc1ccccn1)N(Cc1ccc(F)cc1)N1Cc2ccc(-c3nnc(C(F)F)o3)cc2C1=O [Example 25c]
inhibition at 10 µM / %: 99
//
compound: CN1C(=O)c2cc(-c3nnc(C(F)F)o3)ccc2OC1(C)c1ccccc1 (stereo not shown)
inhibition at 10 µM / %: 99
//
compound: Cn1ccc(OC2CCOCC2)c(-c2cc(F)cc(-c3nnc(C(F)F)o3)c2)c1=O [Example 53a]
inhibition at 10 µM / %: 100
//
compound: O=C1OCC(Cc2ccccn2)N1c1cc(F)cc(-c2nnc(C(F)F)o2)c1 (stereo not shown) [Example 41a]
inhibition at 10 µM / %: 21
//
compound: N#Cc1cccc(Cn2ccnc2-c2cc(-c3nnc(C(F)F)o3)ccn2)n1 [Example 94a]
inhibition at 10 µM / %: 99
//
compound: CN1C(=O)c2cc(-c3nnc(C(F)F)o3)cnc2C[C@]1(C)c1cccc(F)c1 [Example 53b]
inhibition at 10 µM / %: 98
//
compound: CN1C(=O)c2cc(-c3nnc(C(F)F)o3)ccc2OC1(C)c1cccnc1 (stereo not shown) [Example 43b]
inhibition at 10 µM / %: 100
//
compound: Fc1cc(-c2nnc(C(F)F)o2)cc(-c2nccn2Cc2ccncc2)c1 [Example 24a]
inhibition at 10 µM / %: 98
//
compound: Fc1cc(-c2nnc(C(F)F)o2)cc(-c2nccn2CC2CCCOC2)c1 (stereo not shown) [Example 29a]
inhibition at 10 µM / %: 99
//
compound: O=C1c2cc(-c3nnc(C(F)F)o3)ccc2CN1Nc1ccc(F)c(F)c1 [Example 36c]
inhibition at 10 µM / %: 98
//
compound: FC(F)c1nnc(-c2ccnc(-c3nccn3Cc3cncc(Cl)c3)c2)o1 [Example 93a]
inhibition at 10 µM / %: 100
//
compound: Fc1cc(-c2nnc(C(F)F)o2)cc(-c2nccn2Cc2cccnc2)c1 [Example 49a]
inhibition at 10 µM / %: 99
//
compound: Fc1cc(-c2nnc(C(F)F)o2)cc(-c2nccn2Cc2ccc(Cl)cc2)c1 [Example 22a]
inhibition at 10 µM / %: 99
//
compound: O=C1c2cc(-c3nnc(C(F)F)o3)ccc2CN1NC1CCOCC1 [Example 34c]
inhibition at 10 µM / %: 92
//
compound: CC(C)(C)OC(=O)N1CCC(Oc2cccnc2-c2cc(F)cc(-c3nnc(C(F)F)o3)c2)CC1 [Example 16a]
inhibition at 10 µM / %: 98
//
compound: CN(Cc1ccc(C(F)F)cc1)N1Cc2ccc(-c3nnc(C(F)F)o3)cc2C1=O [Example 57c]
inhibition at 10 µM / %: 99
//
compound: Fc1ccc(Cn2ccnc2-c2cc(F)cc(-c3nnc(C(F)F)o3)c2)cc1 [Example 46a]
inhibition at 10 µM / %: 99
//
compound: CN1C(=O)c2cc(-c3nnc(C(F)F)o3)ccc2CC1c1ccc(F)cc1 (single isomer, unassigned; isomer 1) [Example 41b]
inhibition at 10 µM / %: 99
//
compound: CC(=O)Nc1ccc(CN(C)N2Cc3ccc(-c4nnc(C(F)F)o4)cc3C2=O)cc1 [Example 52c]
inhibition at 10 µM / %: 100
//
compound: CN(Cc1cccc(N2CCOCC2)c1)N1Cc2ccc(-c3nnc(C(F)F)o3)cc2C1=O [Example 61c]
inhibition at 10 µM / %: 99
//
compound: COCCn1ccnc1-c1cc(F)cc(-c2nnc(C(F)F)o2)c1 [Example 27a]
inhibition at 10 µM / %: 95
//
compound: COC(=O)c1ccccc1CN(C)N1Cc2ccc(-c3nnc(C(F)F)o3)cc2C1=O [Example 44c]
inhibition at 10 µM / %: 102
//
compound: CN1C(=O)c2cc(-c3nnc(C(F)F)o3)ccc2OC1(C)c1ccc(OC(F)(F)F)cc1 (stereo not shown) [Example 21b]
inhibition at 10 µM / %: 99
//
compound: COc1cncc(Cn2ccnc2-c2cc(F)cc(-c3nnc(C(F)F)o3)c2)n1 [Example 58a]
inhibition at 10 µM / %: 98
//
compound: COC(=O)N(Cc1ccc(F)cc1)N1Cc2ccc(-c3nnc(C(F)F)o3)cc2C1=O
inhibition at 10 µM / %: 99
//
compound: CN(C)c1ccc(CN(C)N2Cc3ccc(-c4nnc(C(F)F)o4)cc3C2=O)cc1 [Example 54c]
inhibition at 10 µM / %: 97
//
compound: O=C1c2cc(-c3nnc(C(F)F)o3)ccc2CN1NCCc1ccc(F)cc1F [Example 19c]
inhibition at 10 µM / %: 98
//
compound: CN1C(=O)c2cc(-c3nnc(C(F)F)o3)ccc2OC1(C)c1ccc(F)cc1 (stereo not shown) [Example 7b]
inhibition at 10 µM / %: 100
//
compound: CN(C(=O)OC(C)(C)C)N1Cc2ncc(-c3nnc(C(F)F)o3)cc2C1=O [Example 68c]
inhibition at 10 µM / %: 99
//
compound: Fc1cc(-c2nnc(C(F)F)o2)cc(-c2nccn2Cc2ccccn2)c1
inhibition at 10 µM / %: 99

Data origin, for the record: patent US12084436B2
